± gives the standard deviation of the reports.
Here the recorded glass transition temperature is given for each entry.
Parameter Measured: glass transition temperature

[[record]]
compound = "*Oc1ccccc1S(=O)(=O)c1ccc(*)cc1 (repeat unit)"
parameter_measured = "glass transition temperature"
experimental_result = "221.00 °C"

[[record]]
compound = "*CC(*)C(=O)OCCSCC (repeat unit)"
parameter_measured = "glass transition temperature"
experimental_result = "-71.00 °C"

[[record]]
compound = "*Oc1ccc(Oc2ccc(NC(=O)c3ccc(Oc4ccc(C(C)(C)c5ccc(C(C)(C)c6ccc(Oc7ccc(C(=O)Nc8ccc(*)cc8)cc7)cc6)cc5)cc4)cc3)cc2)cc1 (repeat unit)"
parameter_measured = "glass transition temperature"
experimental_result = "165.00 °C"

[[record]]
compound = "*c1ccc(Oc2ccc(NC(=O)c3cc(C(=O)Nc4ccc(Oc5ccc(-c6nnc(*)o6)cc5)cc4)cc(N4C(=O)c5ccccc5C4=O)c3)cc2)cc1 (repeat unit)"
parameter_measured = "glass transition temperature"
experimental_result = "285.00 °C"

[[record]]
compound = "*Oc1c(C)cc(*)cc1C(C)CCCC (repeat unit)"
parameter_measured = "glass transition temperature"
experimental_result = "85.00 °C"

[[record]]
compound = "*C(=O)OCCOC(=O)c1cccc(N2C(=O)c3ccc(*)cc3C2=O)c1 (repeat unit)"
parameter_measured = "glass transition temperature"
experimental_result = "220.00 °C"

[[record]]
compound = "*CC(*)c1cc(-c2ccc(C(=O)OC(C)CCCCCC)cc2)ccc1-c1ccc(C(=O)OC(C)CCCCCC)cc1 (repeat unit)"
parameter_measured = "glass transition temperature"
experimental_result = "102.00 °C"

[[record]]
compound = "*Oc1ccc(CC(NC(=O)CCc2ccc(OC(=O)CCCCCCC(*)=O)cc2)C(=O)OCCCC)cc1 (repeat unit)"
parameter_measured = "glass transition temperature"
experimental_result = "37.00 °C"

[[record]]
compound = "*C(=O)Nc1ccc(Oc2ccc(C3(c4ccc(Oc5ccc(NC(=O)c6ccc7c(c6)C(=O)N(c6ccc(Oc8cccc(Oc9ccc(N%10C(=O)c%11ccc(*)cc%11C%10=O)cc9)c8)cc6)C7=O)cc5)cc4)NC(=O)c4ccccc43)cc2)cc1 (repeat unit)"
parameter_measured = "glass transition temperature"
experimental_result = "267.00 °C"

[[record]]
compound = "*Oc1ccc(C(c2ccc(OC(*)=O)cc2)(C(F)(F)F)C(F)(F)F)cc1 (repeat unit)"
parameter_measured = "glass transition temperature"
experimental_result = "176.00 °C"

[[record]]
compound = "*CC(*)c1ccc(CCCCCCCC)cc1 (repeat unit)"
parameter_measured = "glass transition temperature"
experimental_result = "-45.00 °C"

[[record]]
compound = "*c1cc(SCCCCCCCCCCCC)c(*)s1 (repeat unit)"
parameter_measured = "glass transition temperature"
experimental_result = "33.00 °C"

[[record]]
compound = "*c1ccc2c(c1)C(=O)N(c1ccc(C(=O)Nc3ccc(Oc4cccc(Oc5ccc(NC(=O)c6ccc(N7C(=O)c8ccc(C(*)(C(F)(F)F)C(F)(F)F)cc8C7=O)cc6)cc5)c4)cc3)cc1)C2=O (repeat unit)"
parameter_measured = "glass transition temperature"
experimental_result = "286.00 °C"

[[record]]
compound = "*c1cc(CCCCCCOC(=O)COC)c(*)s1 (repeat unit)"
parameter_measured = "glass transition temperature"
experimental_result = "37.00 °C"

[[record]]
compound = "*CC(*)C(=O)OC12CC3CC(CC(C3)C1)C2 (repeat unit)"
parameter_measured = "glass transition temperature"
experimental_result = "183.00 °C"

[[record]]
compound = "*CCCCCCN1C(=O)C(=O)N(c2ccc(C)c(N3C(=O)C(=O)N(*)C3=O)c2)C1=O (repeat unit)"
parameter_measured = "glass transition temperature"
experimental_result = "181.50 °C"

[[record]]
compound = "*C(=O)c1cccc(C(=O)c2ccc3c(c2)C(=O)N(c2cccc(N4C(=O)c5ccc(*)cc5C4=O)c2)C3=O)c1 (repeat unit)"
parameter_measured = "glass transition temperature"
experimental_result = "259.50 °C"

[[record]]
compound = "*O[Si](C)(C)O[Si](C)(C)O[Si](C)(C)O[Si](C)(C)O[Si](C)(C)O[Si](C)(C)OC1=C(*)c2cccc3cccc1c23 (repeat unit)"
parameter_measured = "glass transition temperature"
experimental_result = "-93.00 °C"

[[record]]
compound = "*Sc1ccc(Sc2ccc(Sc3ccc4c(c3)C(=O)N(N3C(=O)c5ccc(*)cc5C3=O)C4=O)cc2)cc1 (repeat unit)"
parameter_measured = "glass transition temperature"
experimental_result = "223.50 °C"

[[record]]
compound = "*Nc1cccc2c(NC(=O)Nc3cc(NC(*)=O)cc(C(=O)Nc4cccc5c4C(=O)c4ccccc4C5=O)c3)cccc12 (repeat unit)"
parameter_measured = "glass transition temperature"
experimental_result = "185.00 °C"

[[record]]
compound = "*CCCCCCNC(=O)CCCCC(=O)NCC(=O)N* (repeat unit)"
parameter_measured = "glass transition temperature"
experimental_result = "53.40 °C"

[[record]]
compound = "*C(=O)c1ccc(Oc2ccc(Oc3ccc(C(=O)c4ccc5c(c4)C(=O)N(c4ccc(Cc6ccc(N7C(=O)c8ccc(*)cc8C7=O)cc6)cc4)C5=O)cc3)cc2)cc1 (repeat unit)"
parameter_measured = "glass transition temperature"
experimental_result = "225.00 °C"

[[record]]
compound = "*CC(*)(C)C(=O)OCCN(CC)c1ccccc1 (repeat unit)"
parameter_measured = "glass transition temperature"
experimental_result = "37.50 °C"

[[record]]
compound = "*CC(O)COc1ccc(C(C)(C)c2ccc(O*)c(Cl)c2)cc1Cl (repeat unit)"
parameter_measured = "glass transition temperature"
experimental_result = "85.00 °C"

[[record]]
compound = "*CC(*)(C)C(=O)OCCCCCCOc1ccc(OC(=O)c2ccc(OCCCCCCCC)cc2)cc1 (repeat unit)"
parameter_measured = "glass transition temperature"
experimental_result = "-1.00 °C"

[[record]]
compound = "*c1ccc(Oc2ccc(C(C)(C)c3ccc(Oc4ccc(-c5nc(*)nc(-c6ccccc6)n5)cc4)cc3)cc2)cc1 (repeat unit)"
parameter_measured = "glass transition temperature"
experimental_result = "228.00 °C"

[[record]]
compound = "*C(=O)Nc1ccc(S(=O)(=O)c2ccc(NC(=O)c3ccc(N4C(=O)c5ccc(*)cc5C4=O)cc3)cc2)cc1 (repeat unit)"
parameter_measured = "glass transition temperature"
experimental_result = "252.00 °C"

[[record]]
compound = "*c1ccc(-c2ccc(-c3cc(-c4ccccc4)c4cc5nc(*)cc(-c6ccccc6)c5cc4n3)cc2)cc1 (repeat unit)"
parameter_measured = "glass transition temperature"
experimental_result = "383.00 °C"

[[record]]
compound = "*CC(*)(C)C(=O)OCCCC (repeat unit) [poly(butyl methacrylate)]"
parameter_measured = "glass transition temperature"
experimental_result = "22.42 ± 6.3 °C"

[[record]]
compound = "*O[Si](*)(C)OCCOCCOCCOCCOCCOCCOCCOCCOC (repeat unit)"
parameter_measured = "glass transition temperature"
experimental_result = "-78.00 °C"

